Test system: COLO 205 colon
Experiment: NCI tumour cell line growth inhibition, 48 h
parameter: TGI

COc1ccc(C(=O)/C=C/c2ccc(OCC(=O)N3CCN(c4ccccc4)CC3)cc2)cc1 yielded TGI of > 75.2 µM

O=C(O)C12CCCC(CCC1)C2 yielded TGI of > 100 µM

NC(Cc1ccccc1)(C(=O)O)C(=O)O yielded TGI of > 100 µM

COC(=O)[C@@H]1C[C@H]([Se]c2ccccc2)CN1C(=O)OCc1ccccc1 yielded TGI of 54.5 µM

N=C(N)SCc1cccc2c(=O)cc(-c3ccccc3)oc12 yielded TGI of 27.3 µM

COC(=O)c1ccc(Cc2ccc(C(=O)OC)o2)o1 yielded TGI of > 378 µM

CCOC(=O)c1ccc(-n2c(SCC)nc3sc(C)c(C)c3c2=O)cc1 yielded TGI of > 100 µM

Cc1cc(OCC(=O)N/N=C/C(Br)=C/c2ccccc2)nc(SCC(=O)N/N=C/C(Br)=C/c2ccccc2)n1 yielded TGI of > 100 µM

CC#CCCN(CC#N)Cc1ccccc1 yielded TGI of > 100 µM

C=CCN(C)CN(C)c1nc(N(C)C)nc(N(C)C)n1 yielded TGI of > 100 µM

CCCCCCCC(=O)SCC/C=C/[C@@H]1CC(=O)NCc2nc(co2)C2=N[C@@](C)(CS2)C(=O)N[C@@H](C(C)C)C(=O)O1 yielded TGI of 0.141 µM

COc1ccc(C2SC(C)C(=O)N2c2nc(-c3nc(-c4ccc(Cl)cc4)cs3)cs2)cc1 (configuration not stated) yielded TGI of > 100 µM

c1ccc(-c2nnc(-c3nsc4ccccc34)o2)cc1 yielded TGI of > 100 µM

CCc1nc(N)nc(N)c1-c1ccc(NCCc2ccccc2)c([N+](=O)[O-])c1 yielded TGI of 16.9 µM

CCC(C(=O)[O-])C(=O)[O-].CCC(C(=O)[O-])C(=O)[O-].N.N.NCCCCCCN.[Pt+4].[Pt+4] yielded TGI of 1.66 µM

CCCCCC/C=C\CCCCCCCCCC1=CC(=O)C=C(OC)C1=O yielded TGI of 3.24 µM

C=C(Cl)C(=C)CCC(Cl)C(C)C (configuration not stated) yielded TGI of > 100 µM

O=c1cc(-c2ccccc2)oc2cc(OCCSCCCCCCCCCCSCCOc3ccc4c(=O)cc(-c5ccccc5)oc4c3)ccc12 yielded TGI of > 100 µM

CC(C)(C)C(=O)O[C@@H]1COC2C(O)COC21 (some centres not stated) yielded TGI of > 100 µM

Cn1ncnc1CCc1ccccc1 yielded TGI of > 100 µM

O=C1CC(=O)N(CCc2ccccc2)S(=O)(=O)N1CCc1ccccc1 yielded TGI of 44.2 µM

CCCCS(=O)(=O)Nc1ccc(Nc2c3ccccc3nc3ccccc23)c(OC)c1 yielded TGI of 20.2 µM
